Task for the reader: assign each of the following compounds its reported T/C.
# Tested on: BDF1 mice, B16 melanoma ip, median survival T/C
# experiment: NCI In Vivo Anticancer Drug Screen. Data for tumor model B16 Melanoma (intraperitoneal) in B6D2F1 (BDF1) mice
# condition_label: endpoint: median survival time; dose: 50.0 mg/kg/injection; schedule: Q01DX009 (ip); vehicle: carboxymethylcellulose (CMC); higher = longer survival
Inconclusive results and toxic doses are left out.

{"columns": ["compound", "observed_value"],
 "data": [
  ["CC(=O)CC(=O)Nc1ncccc1C", "106 % of control"]
]}

Report T/C for each item below.
1. Oc1ccc(Cl)c2cccnc12
2. COC(=O)C1C(O)C(C)C(O)C(C)/C=C\C=C(C)C(=O)Nc2c(C)c(OC(C)=O)c3c(c2O)C(=O)C(C)=C2OCOC(=C23)C(C)=CC(C)(O)C(O)C(C)C1O (centres undefined)
3. NCCc1ccc(S(=O)(=O)O)cc1[N+](=O)[O-]

Output:
1. 97 % of control
2. 103 % of control
3. 96 % of control

----------
# Test system: BDF1 mice, B16 melanoma ip, median survival T/C
# experiment: NCI In Vivo Anticancer Drug Screen. Data for tumor model B16 Melanoma (intraperitoneal) in B6D2F1 (BDF1) mice
# condition_label: endpoint: median survival time; dose: 6.25 mg/kg/injection; schedule: Q01DX009 (ip); vehicle: saline with Tween-80; higher = longer survival
# Method: The antitumor activity of compounds was measured in mice bearing transplantable tumors. Survival or tumor size were measured and the results are expressed as the measurement made in the treated group (T) divided by the measurement made in the vehicle treated control group (C). The tumor model used in this assay is B16 Melanoma (intraperitoneal) in B6D2F1 (BDF1) mice
Toxic doses and inconclusive results are not listed. Square brackets hold non-standard residues; d marks the D form. Peptide text beside a SMILES is read from it. * marks the point of attachment. ξ: configuration not given here. Cbz = O=C(OCc1ccccc1)*; ξK = NCCCCC(N)C(=O)O
quantity_name: T/C

Quick request: T/C for each listed item, please.
1. ClCc1cccc2c(CCl)cccc12
2. CCN(CC)C(=O)c1ccc(C(Cl)(Cl)Cl)cc1
3. COc1ccc(OC)c(NC=O)c1

Output:
["98 % of control", "95 % of control", "91 % of control"]

Kindly give each listed record's T/C.
1. Clc1ccc2c(c1)/C(=C\c1ccnc3ccccc13)c1cc(Cl)cc(Cl)c1-2
2. CC(C)(C)CC(C)(C)CC(C)(C)NCCCN
3. CC1=CCC=C(CNc2ncnc3nc[nH]c23)C1
4. NCC(=O)NC(CCCCNC(=O)OCc1ccccc1)C(=O)O (stereo not given) (H-Gly-[ξK](Cbz)-OH)
5. N#CC(=C1C=CC(=NO)C=C1)c1ccc(Cl)cc1

Output:
["93 % of control", "105 % of control", "102 % of control", "101 % of control", "88 % of control"]

# return T/C for each item in the list
1. C1=Cc2ccccc2/C1=C/c1cccc(/C=C2\C=Cc3ccccc32)c1
2. COc1ccc(N=C=S)cc1N=C=S
3. CNC(=S)N/N=C1/c2cc(Cl)ccc2-c2c(Cl)cc(Cl)cc21
4. CCCCCCC(=O)CCCCCCCCCCCCC(=O)OC
5. NC(N)=NC(N)=Nc1ccc(-c2ccc(N=C(N)N=C(N)N)cc2)cc1
6. CC(C)(C)CC(C)(C)c1ccc(O)c(O)c1
7. Clc1ccc2nc(CI)c(CI)nc2c1

Output:
1. 100 % of control
2. 102 % of control
3. 91 % of control
4. 97 % of control
5. 102 % of control
6. 98 % of control
7. 102 % of control
